tested system: mouse Olfr73 (Mus musculus, UniProt Q920P2)
assay summary: Calcium imaging of HEK293 cells expressing Olfr73 with Gs/olf, short 5-s odorant pulse
Format: cell-based
details: 5-s pulse; strong agonist 100 µM, putative antagonist 1 mM, single or as pair
assay metric: Agonism/antagonism, HEK293 short odor Ca2+ Gs/olf

- compound: "COc1cc(C=O)ccc1O"
  result: "Agonist"
- compound: "C/C=C/c1ccc(OC)c(OC)c1"
  result: "Antagonist"
- compound: "CCC1c2cc(OC)c(O)cc2C(c2ccc(O)c(OC)c2)C1C (stereo not drawn)"
  result: "Antagonist"
- compound: "C=CCc1cc(OC)c(O)c(-c2cc(CC=C)cc(OC)c2O)c1"
  result: "Antagonist"
- compound: "C=CCc1ccc(O)c(OC)c1"
  result: "Agonist"
- compound: "C/C=C/c1ccc2c(c1)OCO2"
  result: "Antagonist"

====

tested system: UniProtKB Q920P2
assay summary: GCaMP3 calcium imaging of mouse OSNs ectopically expressing Olfr73 (rAAV2/5), 5-s odorant pulse
Type: cell-based
pEC50: −log10 of the molar value.

- query smiles: "C=CCc1ccc(O)c(OC)c1"
  pEC50: 5.32

====

tested system: mouse Olfr73 (Mus musculus, UniProt Q920P2)
assay summary: GCaMP3 calcium imaging of mouse OSNs ectopically expressing Olfr73 (rAAV2/5), 5-s odorant pulse
Format: cell-based
details: 5-s pulse; strong agonist 100 µM, putative antagonist 1 mM, single or as pair
assay metric: Agonism/antagonism, OSN Ca2+ Mouse

- molecule: "C=CCc1cc(OC)c(O)c(-c2cc(CC=C)cc(OC)c2O)c1"
  result: "Inactive"
- molecule: "CCC1c2cc(OC)c(O)cc2C(c2ccc(O)c(OC)c2)C1C (stereo not shown)"
  result: "Inactive"
- molecule: "C=C(C)[C@@H]1CCC2=CC(=O)C[C@@H](C)[C@]2(C)C1"
  result: "Agonist"
- molecule: "C/C=C/c1ccc2c(c1)OCO2"
  result: "Agonist"

====

tested system: UniProt Q920P2
Sequence (Q920P2 1-313): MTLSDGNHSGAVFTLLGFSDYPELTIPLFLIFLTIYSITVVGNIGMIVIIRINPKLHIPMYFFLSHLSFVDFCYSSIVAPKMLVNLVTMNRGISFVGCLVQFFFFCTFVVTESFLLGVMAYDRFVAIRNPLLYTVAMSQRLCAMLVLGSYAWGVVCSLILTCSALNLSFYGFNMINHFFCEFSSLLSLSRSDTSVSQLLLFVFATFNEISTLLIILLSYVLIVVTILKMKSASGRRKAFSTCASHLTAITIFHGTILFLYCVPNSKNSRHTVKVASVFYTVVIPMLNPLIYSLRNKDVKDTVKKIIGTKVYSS
assay summary: GCaMP3 calcium imaging of rat OSNs ectopically expressing Olfr73 (rAAV2/5), 5-s odorant pulse
Assay type: cell-based
assay metric: EC50 (µM)

- query smiles: "C=CCc1ccc(O)c(OC)c1"
  assay metric: "EC50"
  units symbol: "µM"
  result: 41

====

tested system: mouse Olfr73 (Mus musculus, UniProt Q920P2)
assay summary: GCaMP3 calcium imaging of mouse OSNs ectopically expressing Olfr73 (rAAV2/5), 5-s odorant pulse
Assay type: cell-based
details: mouse Olfr73-OSNs, 5-s pulse

- compound: "CC(=O)c1ccccc1"
  Response to ligand applied alone: "variable responses"
- compound: "CCCCCOC(C)=O [Amyl acetate, amyl acetate]"
  Response to ligand applied alone: "variable responses"

Value source: paper PMC8085013
